Reported pIC50 by item:
- test.system: bovine cardiac myosin (Bos taurus, UniProt Q9BE39)
- Construct: The source of cardiac myosin was from bovine heart in the form of skinned myofibrils; from tissue; host or cells: bovine heart, skinned myofibrils
- Sequence (Q9BE39 whole entry): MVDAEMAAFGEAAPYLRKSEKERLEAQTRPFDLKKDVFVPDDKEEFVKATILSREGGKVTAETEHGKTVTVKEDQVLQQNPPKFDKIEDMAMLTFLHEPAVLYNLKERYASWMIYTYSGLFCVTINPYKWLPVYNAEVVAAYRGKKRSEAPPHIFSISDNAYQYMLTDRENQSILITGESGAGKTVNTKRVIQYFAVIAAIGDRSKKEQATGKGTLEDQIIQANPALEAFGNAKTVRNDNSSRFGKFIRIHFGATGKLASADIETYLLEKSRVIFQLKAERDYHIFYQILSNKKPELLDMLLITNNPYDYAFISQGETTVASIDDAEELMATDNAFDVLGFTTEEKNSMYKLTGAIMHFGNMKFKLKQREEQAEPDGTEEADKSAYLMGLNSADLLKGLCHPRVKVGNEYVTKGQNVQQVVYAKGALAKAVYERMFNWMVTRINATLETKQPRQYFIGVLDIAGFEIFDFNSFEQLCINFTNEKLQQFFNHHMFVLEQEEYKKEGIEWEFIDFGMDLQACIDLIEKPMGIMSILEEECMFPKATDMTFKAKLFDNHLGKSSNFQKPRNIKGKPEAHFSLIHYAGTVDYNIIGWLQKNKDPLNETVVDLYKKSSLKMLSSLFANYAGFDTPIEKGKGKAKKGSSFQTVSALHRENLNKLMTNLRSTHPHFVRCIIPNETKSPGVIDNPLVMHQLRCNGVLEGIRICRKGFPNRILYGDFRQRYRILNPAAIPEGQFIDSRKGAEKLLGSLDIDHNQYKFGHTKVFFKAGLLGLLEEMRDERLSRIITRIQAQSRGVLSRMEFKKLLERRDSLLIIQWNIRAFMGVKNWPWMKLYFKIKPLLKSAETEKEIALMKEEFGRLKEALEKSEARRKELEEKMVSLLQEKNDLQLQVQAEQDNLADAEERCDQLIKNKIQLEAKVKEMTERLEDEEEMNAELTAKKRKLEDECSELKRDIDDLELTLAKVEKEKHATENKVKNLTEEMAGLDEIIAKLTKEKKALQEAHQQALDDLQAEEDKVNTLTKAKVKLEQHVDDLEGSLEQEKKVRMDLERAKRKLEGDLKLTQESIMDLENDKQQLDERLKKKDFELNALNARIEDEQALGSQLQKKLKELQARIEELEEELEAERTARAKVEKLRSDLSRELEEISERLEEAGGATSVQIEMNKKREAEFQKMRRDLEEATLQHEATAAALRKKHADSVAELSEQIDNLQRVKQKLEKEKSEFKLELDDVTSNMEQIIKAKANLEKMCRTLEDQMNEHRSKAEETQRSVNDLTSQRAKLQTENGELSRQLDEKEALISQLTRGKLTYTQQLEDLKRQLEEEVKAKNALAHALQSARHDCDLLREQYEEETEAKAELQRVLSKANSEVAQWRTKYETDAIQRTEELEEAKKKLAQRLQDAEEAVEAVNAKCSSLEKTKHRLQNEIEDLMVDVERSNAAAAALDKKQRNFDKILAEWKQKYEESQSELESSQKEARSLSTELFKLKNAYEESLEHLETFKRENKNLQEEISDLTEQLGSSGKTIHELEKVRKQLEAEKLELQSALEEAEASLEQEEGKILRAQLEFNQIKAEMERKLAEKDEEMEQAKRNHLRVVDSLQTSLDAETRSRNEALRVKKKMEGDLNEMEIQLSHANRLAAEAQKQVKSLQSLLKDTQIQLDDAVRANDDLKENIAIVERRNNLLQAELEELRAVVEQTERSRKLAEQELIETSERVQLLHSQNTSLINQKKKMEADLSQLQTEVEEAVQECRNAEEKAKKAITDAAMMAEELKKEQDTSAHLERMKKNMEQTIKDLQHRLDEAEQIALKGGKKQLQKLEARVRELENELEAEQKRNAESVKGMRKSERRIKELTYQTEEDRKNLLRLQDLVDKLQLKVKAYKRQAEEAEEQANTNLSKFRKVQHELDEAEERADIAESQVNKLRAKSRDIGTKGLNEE
- Sequence (P85100 whole entry partner): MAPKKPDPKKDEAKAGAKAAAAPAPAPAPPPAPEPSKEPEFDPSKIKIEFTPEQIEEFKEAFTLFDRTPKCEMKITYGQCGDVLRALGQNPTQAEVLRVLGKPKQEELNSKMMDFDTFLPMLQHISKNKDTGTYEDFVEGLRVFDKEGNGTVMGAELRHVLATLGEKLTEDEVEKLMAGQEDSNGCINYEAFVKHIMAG
- Sequence (Q3SZE5 whole entry partner): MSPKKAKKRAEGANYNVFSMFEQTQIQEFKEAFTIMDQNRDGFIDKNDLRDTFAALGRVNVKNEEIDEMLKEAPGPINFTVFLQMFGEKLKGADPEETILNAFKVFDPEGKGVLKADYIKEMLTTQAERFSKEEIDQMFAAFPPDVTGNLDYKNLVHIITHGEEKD
- experimental.details: Myosin inhibition assay (PK/LDH-coupled ATPase, bovine cardiac myofibrils)
- Format: biochemical
- recorded.conditions: bovine cardiac myofibrils, calcium giving 50% activation (pCa50); read-out: Biochemical Activity (pCa50)
pIC50: −log10 of the molar value.

Example results:
[[record]]
structure_string = "C[C@H](Nc1cc(=O)n(-c2ccccn2)c(=O)[nH]1)c1ccccc1"
endpoint_name = "pIC50"
reported_value = "> 6.00"

[[record]]
structure_string = "O=c1cc(N[C@H](c2ccccc2)C2CC2)[nH]c(=O)n1CC(F)(F)F"
endpoint_name = "pIC50"
reported_value = "4.82 to 6.00"

[[record]]
structure_string = "O=c1cc(N[C@H](c2ccccc2)C2CCC2)[nH]c(=O)n1CC(F)(F)F"
endpoint_name = "pIC50"
reported_value = "> 6.00"


Query: Which pIC50 value belongs to `C[C@H](n1c(=O)cc(N[C@@H](C)Cc2ccc(F)cc2)[nH]c1=O)C(F)(F)F` ?
Reply: > 6.00

Query: Which pIC50 value belongs to `C[C@H](Nc1cc(=O)n(CC2CC2)c(=O)[nH]1)c1cccc(Cl)c1` ?
Reply: > 6.00

Query: Which pIC50 value belongs to `CC(C)n1c(=O)cc(N[C@@H](CO)c2ccccc2)[nH]c1=O` ?
Reply: 4.82 to 6.00
